Entries and their growth inhibition values follow.
# assay_comment: NCI Yeast Anticancer Drug Screen. Data for the sgs1 mgt1 strain (AID 161);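 further: 0% = growth of cultures given vehicle only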
# condition_details: S. cerevisiae sgs1 mgt1 strain, at 50.0 µM, active compounds read high
This is part of a sample that, as a whole, favours compounds with a hit. Of some 79,000 tested, about 15% had one in any assay.
measure_name: growth inhibition (%)

INSERT INTO measurements (molecule, output_unit, value_observed) VALUES
  ('CCOC(=O)CC1(C)c2nc(NC(C)=O)sc2Cc2sc(NC(C)=O)nc21', '%', 0.8),
  ('NC(=O)c1nnc2cc(F)c(F)cc2c1N', '%', -9.65),
  ('COC(=O)c1ccc(C(=O)OC)c(NC(=O)CC(=O)c2ccc([N+](=O)[O-])cc2)c1', '%', 51.4),
  ('O=C(O)c1cc(CC2Cc3cc4c(cc3C2=O)CCC4)cc2c1CCC2 (centres undefined)', '%', -21.6),
  ('CCOC(=O)C(C#N)C(=O)c1ccccc1-c1ccccc1[N+](=O)[O-] (centres undefined)', '%', 3.35),
  ('Cc1ccc(C)c(NC(=O)Oc2ccc(C(=O)OCc3ccccc3)cc2)c1', '%', 74.9),
  ('CCOC(=O)c1cc2cc([N+](=O)[O-])ccc2[nH]1', '%', 0),
  ('Cn1cnc2cc(N3CCOCC3)c([N+](=O)[O-])cc2c1=O', '%', -0.7),
  ('O=C(Oc1ccco1)c1ccc([N+](=O)[O-])cc1', '%', -4.7),
  ('COc1ccc(C(=O)c2ccc(Cl)cc2)c(O)c1OC', '%', -1.7),
  ('O=C(Nc1ccc(Cl)c(Cl)c1)C(=O)Nn1c(=S)[nH]c2ccccc2c1=O', '%', 2.8),
  ('COc1ccc2c(c1)OC(=O)C(S(=O)(=O)c1ccccc1)C2 (centres undefined)', '%', 6.65),
  ('NC(CCC(=O)Nc1cccc2ccccc12)C(=O)O (centres undefined)', '%', 16.5),
  ('COc1ccc(-c2c(C(=O)O)cc(O)c3c(OC)c(OC)c(OC)cc23)cc1OC', '%', -17.6),
  ('Cc1cc(OCCCC[N+](C)(C)Cc2ccc(Br)o2)c(C(C)C)cc1Cl', '%', 99.2),
  ('Cc1cn(CCCn2cnc3c(N)ncnc32)c(=O)[nH]c1=O', '%', -9.55),
  ('Cc1ccc(NC(=S)/N=C/c2c(O)[nH]c(=O)[nH]c2=O)c(C)c1', '%', -15.8),
  ('COc1ccc2c(c1)OC1(OCCO1)[C@@H]1C2CC[C@@]2(C)C1CCC21OCCO1 (some centres undefined)', '%', 38.9),
  ('CCNC(=O)NCc1cccc2ccccc12', '%', -7.15),
  ('CC1=CCC2(C#N)CCC1C2O (centres undefined)', '%', 8.1),
  ('Cc1ccc(N)c(C(O)(C(F)(F)F)C(F)(F)F)c1', '%', 12.5),
  ('Clc1ccc(-c2ncc(-c3ccccc3)o2)c(Cl)c1', '%', 5.65),
  ('CC(C)n1nnnc1-c1ccccc1', '%', 2),
  ('CCCCCCCSSCCCCCCC', '%', -3.55);

* * *

# assay_comment: NCI Yeast Anticancer Drug Screen. Data for the rad50 strain (AID 155);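 further: 0% = growth of vehicle-only cultures of the same strain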
# condition_details: S. cerevisiae rad50 strain growth inhibition; at 50.0 µM; active compounds read high
The panel holds about 79,000 compounds, 15% with a hit somewhere; the sample as a whole holds those more often.
measure_name: growth inhibition (%)

INSERT INTO assay_data (substance_smiles, output_unit, value_observed) VALUES
  ('O=C(Nc1c(Cl)c(Cl)c2c(c1Cl)Cc1cc(Cl)ccc1-2)C(Cl)Cl', '%', 36.9),
  ('Cc1nn(-c2nc(-c3ccc(Br)cc3)cs2)c(C)c1C', '%', 12.9),
  ('Cc1nc2ccc(S(=O)(=O)Nc3ccccn3)cc2c(=O)n1NS(=O)(=O)c1ccccn1', '%', 42.6),
  ('O=S(O)CCCCCSSCCCCSSCCCCCS(=O)O', '%', 7.6),
  ('CCCOc1ccc(C(=O)C(=O)c2ccccc2)cc1', '%', 13.4),
  ('c1ccc(-c2csc3[n+]2CCN3)cc1', '%', 18.6);
